# Procedure text: non-specific 3'UTR reporter inhibition in Clone20-Shn3RL – cell-based, Renilla luciferase, cherry-picked, counter-screen for Shn3 inhibitor project, dose response (AID 624133)
# Type: functional
Activity calls are given as the source filed them.
Quantity name: AC50

Examples with answers:
[
  {
    "Compound": "COc1ccc(-n2c(C)cc(C(=O)CSc3nnc(-c4cccs4)o3)c2C)cc1",
    "AC50": "5.62 µM (active)"
  },
  {
    "Compound": "CCCc1nc([N+](=O)[O-])c(S(=O)(=O)c2ccccc2)n1CC(C)C",
    "AC50": "25.9 µM (active)"
  },
  {
    "Compound": "C=C1C(=O)OC2C=C(CO)C3OC3C3OC3(C)CC(OC(=O)/C(=C/C)COC(C)=O)C12 (centres undefined)",
    "AC50": "9.84 µM (active)"
  }
]

Kindly review the next compound as well.
Request: Please list AC50 recorded for the compound CCC(C)NS(=O)(=O)c1ccc(S(=O)(=O)N2CCCC3(CCCCC3)C2)cc1 (centres undefined)
Response: 5.9 µM (active)

====

# Tgt: 26S proteasome non-ATPase regulatory subunit 14 (Homo sapiens, UniProt O00487)
# Sequence (O00487 whole entry): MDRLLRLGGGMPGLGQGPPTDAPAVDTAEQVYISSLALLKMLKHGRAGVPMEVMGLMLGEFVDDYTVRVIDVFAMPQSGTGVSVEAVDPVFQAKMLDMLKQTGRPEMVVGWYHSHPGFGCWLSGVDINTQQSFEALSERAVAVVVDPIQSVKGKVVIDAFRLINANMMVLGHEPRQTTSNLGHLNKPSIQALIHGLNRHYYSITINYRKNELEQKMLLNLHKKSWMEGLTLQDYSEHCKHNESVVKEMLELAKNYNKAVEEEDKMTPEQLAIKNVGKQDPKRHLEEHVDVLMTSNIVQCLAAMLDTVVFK
# Procedure text: inhibition of proteasome subunit RPN11 – biochemical, fluorescence polarization, uHTS hits, confirmation (AID 602368)
# Assay type: functional
The source made the active and inactive calls.
Below, each entry is listed with its recorded IC50.

[
  {
    "Compound": "CCOC(=O)C1CCN(C(=O)CCc2nc3sc4c(c3c(=O)[nH]2)CCCC4)CC1",
    "IC50": "31.6 µM (active)"
  }
]

Request: Query IC50 for CC(C(=O)Nc1ccc(C(=O)O)c(O)c1)N1C(=O)/C(=C\c2ccco2)SC1=S (stereo unspecified)
Response: 14.6 µM (active)

====

# Procedure text: DRD fibroblast viability loss – cell-based, non-viral oncogenic, luminescence, dose response (AID 1934)
# Assay type: functional
# Assay conditions: Homo sapiens
Calls of active or inactive are those of the source.
Quantity name: EC50

Illustrative cases are given below, each with its answer.
[
  {
    "Compound string": "COc1cc2c(cc1OC)CN(C(=O)c1cc(=O)c3ccccc3o1)CC2",
    "EC50": "14.1 µM (active)"
  },
  {
    "Compound string": "Cc1cccc(OCC(=O)Nc2ccc(C(=O)NCc3cccnc3)cc2)c1",
    "EC50": "> 150 µM (not active)"
  },
  {
    "Compound string": "Cc1ccccc1S(=O)(=O)Cc1ccc(C(=O)N2CCN(c3cccc(C)c3C)CC2)o1",
    "EC50": "4.95 µM (active)"
  }
]

Please find the next molecule below.
Request: Please supply the value of reported EC50 for the item O=C(NC(Nc1nc2ccc([N+](=O)[O-])cc2s1)(C(F)(F)F)C(F)(F)F)c1ccccc1Cl
Response: 1.81 µM (active)

====

Listed next: entries and their corresponding AC50.
# Tgt: UniProtKB Q06710
# Sequence (Q06710 whole entry): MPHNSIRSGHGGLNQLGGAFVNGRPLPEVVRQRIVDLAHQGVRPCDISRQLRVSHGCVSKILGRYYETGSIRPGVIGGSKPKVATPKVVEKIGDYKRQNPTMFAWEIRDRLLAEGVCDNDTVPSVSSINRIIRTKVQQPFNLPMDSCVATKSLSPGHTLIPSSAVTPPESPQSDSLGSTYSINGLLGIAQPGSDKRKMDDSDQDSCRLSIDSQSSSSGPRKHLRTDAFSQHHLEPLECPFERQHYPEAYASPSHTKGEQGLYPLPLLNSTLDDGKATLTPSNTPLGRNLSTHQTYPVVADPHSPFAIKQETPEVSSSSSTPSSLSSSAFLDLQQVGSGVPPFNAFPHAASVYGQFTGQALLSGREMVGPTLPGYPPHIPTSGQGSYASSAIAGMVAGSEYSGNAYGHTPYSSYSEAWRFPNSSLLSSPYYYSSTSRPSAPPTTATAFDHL
# Procedure text: PAX8 transcriptional activity inhibition in RMG-I – RMG-I cells, luciferase, cherry-pick, dose response (AID 687027);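 note: luciferase reporter driven by Pax8 target thyroperoxidase promoter measured by SteadyGlo luminescence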
# Assay type: functional, cell-based
Calls of active or inactive are those of the source.

[
  {
    "Compound": "COC(=O)C1C=CC(OC2OC(COC(C)=O)C(OC(C)=O)C(OC(C)=O)C2OC(C)=O)n2c(=O)n(-c3ccccc3)c(=O)n21 (stereo not drawn)",
    "AC50": "3.41 µM (active)"
  }
]

Request: Retrieve AC50 measured for Cc1ccc(S(=O)(=O)CCC(=O)c2ccc(O)cc2O)cc1 and print it.
Response: 4.59 µM (active)

Request: Hello, please tell me recorded AC50 for this one: COc1ccccc1-c1ccc2c(c1)O[C@H](CN(C)Cc1ccc3c(c1)OCO3)[C@H](C)CN([C@@H](C)CO)S2(=O)=O
Response: 13.5 µM (active)

Request: Entry C[C@@H]1CCCCO[C@H](CN(C)S(=O)(=O)c2ccc(Cl)cc2)[C@H](C)CN([C@@H](C)CO)C(=O)c2cc(NS(=O)(=O)c3ccc(F)cc3)ccc2O1 needs its AC50 filled in; supply it.
Response: 4.33 µM (active)

Request: Identify AC50 associated with the compound Oc1ccc(Cc2ccccc2)c2cccnc12
Response: 4.48 µM (active)

Request: Given the compound C[C@H]1CCCCO[C@@H](CN(C)C(=O)c2ccccc2)[C@@H](C)CN([C@@H](C)CO)C(=O)c2cc(NC(=O)Nc3ccc(C(F)(F)F)cc3)ccc2O1 , write its reported AC50.
Response: 3.76 µM (active)

Request: Complete the entry with AC50 for C[C@H](CO)N1C[C@H](C)[C@H](CN(C)Cc2ccc(C(F)(F)F)cc2)OCCCC[C@H](C)Oc2ccc(NC(=O)Nc3ccc4c(c3)OCO4)cc2C1=O
Response: 5.42 µM (active)

Request: Specify measured AC50 for C[C@@H]1CN([C@H](C)CO)C(=O)c2cc(NC(=O)CCCCCC(=O)Nc3ccccc3N)ccc2O[C@@H]1CN(C)Cc1ccc(C(F)(F)F)cc1 .
Response: 6.43 µM (active)

Request: Look up and state reported AC50 for Oc1ccc(C[C@H]2CNC(=S)N2CC2CCCN2C[C@H](Cc2ccc(O)cc2)N2C[C@H](Cc3ccc(O)cc3)N(CC3CCCCCC3)C2=S)cc1 (stereo partly drawn)
Response: 5.35 µM (active)

Request: Find the measured AC50 of C[C@H](O)C#Cc1ccc2c(c1)O[C@H](CN(C)Cc1ccc(-c3ccccc3)cc1)[C@H](C)CN([C@@H](C)CO)S2(=O)=O and report it.
Response: 5.87 µM (active)

Request: Input CCSCCc1nnc(NC(=O)Nc2cccc(C(F)(F)F)c2)s1 , output reported AC50.
Response: 7.31 µM (active)

Request: Give a short answer stating reported AC50 for O=C(NC(Nc1nc2ccc([N+](=O)[O-])cc2s1)(C(F)(F)F)C(F)(F)F)c1ccccc1Cl .
Response: 0.676 µM (active)

Request: Identify AC50 associated with the compound O=C1/C(=C/c2ccccc2F)SC(=S)N1CC(=O)N1CCCCC1c1cccnc1 (stereo not drawn)
Response: 5.04 µM (active)
